The reported measurements were obtained from ChEMBL document CHEMBL4033665.

- TESTED TARGET: UniProtKB Q13547
- MEASUREMENT NOTES: Inhibition of C-terminal His-tag and C-terminal FLAG-tagged full length human HDAC1 expressed in baculovirus expression system using AMC-labeled RHKKAc as substrate by fluorescence method
pIC50: −log10 of the molar value.
METRIC NAME: pIC50

Please report the recorded pIC50 for Cc1noc(C)c1-c1ccnc(N(Cc2ccc(C(=O)NO)cc2)c2cnccn2)c1 .
≤ 5.00

###

- TESTED TARGET: Histone deacetylase 1 (Homo sapiens, UniProt Q13547)
- Sequence (Q13547 whole entry): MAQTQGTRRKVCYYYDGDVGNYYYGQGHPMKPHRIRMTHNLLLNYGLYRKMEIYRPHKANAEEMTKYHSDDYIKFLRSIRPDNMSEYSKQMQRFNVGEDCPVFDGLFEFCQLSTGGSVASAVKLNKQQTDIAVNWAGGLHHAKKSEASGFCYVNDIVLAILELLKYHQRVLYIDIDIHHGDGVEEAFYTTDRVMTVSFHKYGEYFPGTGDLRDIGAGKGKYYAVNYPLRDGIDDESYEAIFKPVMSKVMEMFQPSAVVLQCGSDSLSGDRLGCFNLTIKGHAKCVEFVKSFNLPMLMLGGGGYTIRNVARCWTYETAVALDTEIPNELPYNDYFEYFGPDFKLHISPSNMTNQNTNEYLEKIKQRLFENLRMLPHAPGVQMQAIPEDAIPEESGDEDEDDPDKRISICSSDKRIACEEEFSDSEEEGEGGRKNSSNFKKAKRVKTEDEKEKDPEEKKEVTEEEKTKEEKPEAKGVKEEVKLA
- MEASUREMENT NOTES: Inhibition of C-terminal GST-tagged full length human HDAC1 expressed in baculovirus expression system in Sf9 cells using AMC-labeled RHKKAc as substrate after 2 hrs by fluorescence assay
METRIC NAME: IC50 (µM)
# unit: µM | format: bare number

Please report the recorded IC50 for COc1ccc(-c2cc(-c3ccoc3)c(C(=O)NCc3ccc(C(=O)NO)cc3)[nH]2)cc1 .
0.07
